assay.target: HLA-A*02:11
experiment.notes: IEDB peptide-MHC binding, purified MHC/direct/fluorescence; filed as Kd, often an IC50 or EC50 that approximates it; bounds were set here for any values at or beyond the usual limits of such assays
experimental.conditions: source organism: Burkholderia mallei
pKd: −log10 of the molar value.
quantity: pKd

// sample `RVVRPWGSY` , its pKd was ≤ 4.70

====

assay.target: HLA-B*45:01
experiment.notes: IEDB peptide-MHC binding, purified MHC/competitive/radioactivity; filed as Kd, often an IC50 or EC50 that approximates it; bounds were set here for any values at or beyond the usual limits of such assays
experimental.conditions: source organism: Mammarenavirus lassaense
quantity: pKd
Lab note: report pKd as minus log10 of the concentration in molar units, number only.

`KEAYCQEFSL` yielded pKd of 5.24

====

assay.target: HLA-A*02:12
experiment.notes: IEDB peptide-MHC binding, purified MHC/direct/fluorescence; filed as Kd, often an IC50 or EC50 that approximates it; bounds were set here for any values at or beyond the usual limits of such assays
experimental.conditions: source organism: Listeria monocytogenes serotype 4b str. H7858
quantity: pKd
Bear in mind: pKd is minus log10 of a mol/L concentration; give just that figure.

Value of measured pKd for the entry `SQDEVLFLV` : 8.40

====

Exercise: for every item that follows, state its recorded Kd.
assay.target: HLA-B*08:01
experiment.notes: IEDB peptide-MHC binding, purified MHC/direct/fluorescence; filed as Kd, often an IC50 or EC50 that approximates it; bounds were set here for any values at or beyond the usual limits of such assays
experimental.conditions: source organism: Vibrio vulnificus

So for `DFPIFNQRY` , the logged Kd turned out to be ≥ 20 µM

Lab note: measured Kd of `LLTQSNAGF` was ≥ 20 µM

====

assay.target: HLA-B*18:01
experiment.notes: IEDB peptide-MHC binding, purified MHC/competitive/radioactivity; filed as Kd, often an IC50 or EC50 that approximates it; bounds were set here for any values at or beyond the usual limits of such assays
experimental.conditions: source organism: Mammarenavirus lassaense
quantity: Kd

Tested system HLA-B*18:01; Kd recorded for `KEAYCQEFSL` was ≥ 36.9 µM

====

assay.target: HLA-B*15:01
experiment.notes: IEDB peptide-MHC binding, purified MHC/direct/fluorescence; filed as Kd, often an IC50 or EC50 that approximates it; bounds were set here for any values at or beyond the usual limits of such assays
experimental.conditions: source organism: Influenza A virus (A/swine/Hong Kong/273/1994(H1N1))
quantity: pKd
The quantity pKd is defined as the negative base-10 logarithm of the molar concentration.

For `GMFNMLSTV` the sequence record lists pKd as 6.98

====

Kindly state Kd for each of the entries shown.
assay.target: HLA-A*02:02
experiment.notes: IEDB peptide-MHC binding, purified MHC/competitive/radioactivity; filed as Kd, often an IC50 or EC50 that approximates it; bounds were set here for any values at or beyond the usual limits of such assays
experimental.conditions: source organism: Lassa virus Josiah
The figure you give is taken to be in µM; do not add the unit.

Measured Kd of `MSIQLINKAV` : 11.3

Per the records, this sequence ( `VLIALSVLAV` ) has Kd equal to 0.162

====

assay.target: HLA-B*27:05
experiment.notes: IEDB peptide-MHC binding, purified MHC/direct/fluorescence; filed as Kd, often an IC50 or EC50 that approximates it; bounds were set here for any values at or beyond the usual limits of such assays
experimental.conditions: source organism: Vibrio cholerae
quantity: Kd

Looking up `DSDPMDGCE` , I see its Kd listed as ≥ 20 µM

get_value(item= `RVHGATVFK` , readout=Kd) returns ≥ 20 µM

====

Kindly supply the reported pKd values for the records listed here.
assay.target: HLA-A*31:01
experiment.notes: IEDB peptide-MHC binding, purified MHC/direct/fluorescence; filed as Kd, often an IC50 or EC50 that approximates it; bounds were set here for any values at or beyond the usual limits of such assays
experimental.conditions: source organism: Mammarenavirus juninense
pKd: −log10 of the molar value.

Summary for this sequence, `GKLDPTNTL` : pKd is ≤ 4.70

The sequence `YAKKFKTGM` showed pKd equal to ≤ 4.70

====

assay.target: HLA-B*07:02
experiment.notes: IEDB peptide-MHC binding, purified MHC/competitive/radioactivity; filed as Kd, often an IC50 or EC50 that approximates it; bounds were set here for any values at or beyond the usual limits of such assays
experimental.conditions: source organism: Vaccinia virus WR
quantity: Kd (nM)
Quick reminder: number only, in nM, skip the unit.

Measured Kd of `VPTNDHIPVV` : 170

Measured Kd of `SPGEIKPKF` : 79.7

# Kd of `KPDHDGNTPL` = 31

// recorded Kd for `KPAMSTYSDI` : 161

Item: `LPNVDLTTM` | Kd: 54.9

Kindly note the recorded Kd for `TFFSYLMKDK` , which is 16200

Data point: `KPDGSDSMDV` ; Kd = 244

What the record says about `SPAHLINKLL` : Kd is 26.6

====

assay.target: HLA-A*68:01
experiment.notes: IEDB peptide-MHC binding, purified MHC/competitive/radioactivity; filed as Kd, often an IC50 or EC50 that approximates it; bounds were set here for any values at or beyond the usual limits of such assays
experimental.conditions: source organism: Mammarenavirus whitewaterense
Please respond with reported Kd for every item in the list.
Supply the numeric figure in µM, leaving out any unit text.

response.value for `TAIAKCNLDH` (field: Kd) = 7.07

For this sequence ( `SRIFEELVWK` ), measured Kd is 0.477

====

assay.target: HLA-B*27:20
experiment.notes: IEDB peptide-MHC binding, purified MHC/competitive/fluorescence; filed as Kd, often an IC50 or EC50 that approximates it; bounds were set here for any values at or beyond the usual limits of such assays
experimental.conditions: source organism: human gammaherpesvirus 4
quantity: pKd
Note: pKd values are expressed as the negative base-10 logarithm of concentration in M.

Notebook: `RRRKGWIPL` , pKd read as 9.70

====

assay.target: HLA-B*57:01
experiment.notes: IEDB peptide-MHC binding, purified MHC/direct/fluorescence; filed as Kd, often an IC50 or EC50 that approximates it; bounds were set here for any values at or beyond the usual limits of such assays
experimental.conditions: source organism: Burkholderia mallei ATCC 23344
quantity: Kd

Noted for `QHAWPLPPL` : its Kd reads ≥ 20 µM

====

assay.target: HLA-B*15:09
experiment.notes: IEDB peptide-MHC binding, purified MHC/competitive/fluorescence; filed as Kd, often an IC50 or EC50 that approximates it; bounds were set here for any values at or beyond the usual limits of such assays
experimental.conditions: source organism: Human immunodeficiency virus type 1 (ELI ISOLATE)
quantity: Kd

Memo: `FLGRIWPS` , reported Kd: ≥ 20 µM

====

assay.target: HLA-A*30:02
experiment.notes: IEDB peptide-MHC binding, purified MHC/competitive/radioactivity; filed as Kd, often an IC50 or EC50 that approximates it; bounds were set here for any values at or beyond the usual limits of such assays
experimental.conditions: source organism: Dengue virus 4 Dominica/814669/1981
quantity: pKd
# pKd: negative log10 of molar concentration; output just the value

Reported HLA-A*30:02 pKd for item `SIGKMFESTY` was 7.43

====

Please respond with reported Kd for every item in the list.
assay.target: HLA-B*07:02
experiment.notes: IEDB peptide-MHC binding, purified MHC/competitive/radioactivity; filed as Kd, often an IC50 or EC50 that approximates it; bounds were set here for any values at or beyond the usual limits of such assays
experimental.conditions: source organism: Dengue virus 4 Philippines/H241/1956
Please provide the amount together with its unit, number first.

The recorded Kd for `TPEAKNSTFL` is 1370 nM

So for `SPSVEVKLPD` , the logged Kd turned out to be 205 nM

====

assay.target: HLA-A*02:01
experiment.notes: IEDB peptide-MHC binding, purified MHC/direct/fluorescence; filed as Kd, often an IC50 or EC50 that approximates it; bounds were set here for any values at or beyond the usual limits of such assays
experimental.conditions: source organism: Yersinia pestis
quantity: Kd (nM)
Form entry: value (nM) — number only.

Entry `FQLYSDLAH` ; assay system HLA-A*02:01; Kd recorded at 1910

====

assay.target: HLA-A*11:01
experiment.notes: IEDB peptide-MHC binding, purified MHC/competitive/radioactivity; filed as Kd, often an IC50 or EC50 that approximates it; bounds were set here for any values at or beyond the usual limits of such assays
experimental.conditions: source organism: Dengue virus 1 Brazil/97-11/1997
quantity: pKd
A value of pKd is the negative decimal logarithm of a concentration given in moles per litre.

Per the record, `VTFKTAHAK` has pKd of 7.05

Measured pKd, `LAMGIMMLK` : 7.49

Just so you know, measured pKd for `GAGLAFSLMK` came out at 7.03

====

assay.target: HLA-A*31:01
experiment.notes: IEDB peptide-MHC binding, purified MHC/direct/fluorescence; filed as Kd, often an IC50 or EC50 that approximates it; bounds were set here for any values at or beyond the usual limits of such assays
experimental.conditions: source organism: Salmonella enterica
quantity: Kd

Field Kd (HLA-A*31:01), entry `FPASHMATY` : ≥ 20 µM
